# assayedSystem: HA of high pathogenic H7N7 (A/Ch/Neth/621557/03), on infected MDCK cells or on virus (Influenza A virus H7N7 A/Ch/Neth/621557/03 (host Chicken))
# protocol: cell-based or functional assay
A collection of binders and their measured IC50, in vitro virus neutralization on MDCK cells
measuredQuantity: IC50, in vitro virus neutralization on MDCK cells (µg/mL)

{"columns": ["binder", "comparativeSign", "recordedNumber"],
 "data": [
  ["AT10-002 (antibody, V domains shown) VH: QLQLQESGPRLVKPSETLSLTCSVSGVSISSSNYYWGWIRQPPGKGLEWIGTIYHSGSTYYNPSLKSRLIISVDTSKNQFYLQLTSLTAADSAVYYCATGGGFGWSQTYFGYWGQGTLVTASS VL: QSALTQPASVSGSPGQSITISCTGTSSDVGAYNYVSWYQHHPGKAPKLMIYDVTYRPSGVSTRFSGSKSGNTASLTISGLQAEDEADYYCSSQSRSSTLVIFGGGTKLTVLG", "=", 0.1],
  ["AT10-004 (antibody, V domains shown) VH: QVQLVQSGAEVRKPGASVKVSCKASGYTFTRHGISWVRQAPGQGLEWMGWISAYTGDTDYAQKFQGRVTMTTDTSTNTAYMELRSLRSDDAAVYYCARLRLQGEVVVPPSQSNWFDPWGQGTLVTVSS VL: EIVLTQSPATLSLYPGERATLSCRASQSVSRYLAWYQQKPGQAPRLLIYDASNRATGIPARFSGSGSGTDFTLTISSLEPEDFAVYYCQQRSNWLKITFGQGTRLEIKG", "=", 0.2],
  ["AT10-003 (antibody, V domains shown) VH: QVHLVQSGAEVRKPGASVKVSCKVSGYTLNELSIHWLRQAPGRGLEWMGSFDPEDGETIYAQKFQGRVTMTGDTSTDTAYLELTSLRSEDTALYYCARGWGAVTSPFDFWGQGTLVTVSS VL: DIVMTQSPLSLPVTPGEPASISCRSSQSLLHSNGHIYFDWYLQKPGQSPQLLIYLVSKRASGVPDRFSGSGSGTDFTLKISRVEAEDVGVYYCMQALETPFTFGPGTKVHIKR", ">", 15],
  ["AT10-001 (antibody, V domains shown) VH: EVQLLESGGGLVQPGGSLRLSCAASGFSFSTYAMSWVRQAPGKGLEWVSGISGSGESTYYADSVKGRFTVSRDNSKNTLYLQMNSLRAEDTAVYYCAKQGDHIAWLLRGINFDYWGQGVLVTVSS VL: EIVLTQSPGTLSLSPGERATLSCRASQSVSSSYLAWYQQKPGQAPRLLIYGASTRATGIPDRFSGRGSGTDFTLTISSLEPEDFAVYYCQNYGSPFLFTFGPGTKVDIKR", "=", 0.4]
]}

Data origin, for the record: patent US20150010566A1
